Here we gather pKd data for Receptor-interacting serine/threonine-protein kinase 1 (Homo sapiens, UniProt Q13546) reported by several publications.
pKd: −log10 of the molar value.

CCS(=O)(=O)Nc1ccc(-c2n[nH]c(Nc3ccccn3)c2C(N)=O)cc1OCc1ccc(F)cc1	< 4.52
C[C@H](Oc1cc(-c2nn(C)c3c(-c4cnc(N5CCCC5)nc4)cnc(N)c23)ccc1NS(=O)(=O)C(F)F)c1ccc(F)cc1	< 5.00
CCS(=O)(=O)Nc1ccc(-c2n[nH]c(Nc3cnccn3)c2C(N)=O)cc1OCc1ccccn1	< 4.52
NC(=O)c1c(-c2ccc(NS(=O)(=O)C(F)F)c(OCc3ccc(F)c(F)c3)c2)n[nH]c1Nc1cccc(C(F)(F)F)n1	< 4.52

IN: Please provide the recorded pKd for `CCS(=O)(=O)Nc1ccc(-c2n[nH]c(Nc3cnccn3)c2C(N)=O)c(OC)c1` , tested on Receptor-interacting serine/threonine-protein kinase 1 (Homo sapiens, UniProt Q13546).
OUT: < 4.52

IN: Please provide the recorded pKd for `C[C@@H](Oc1cc(NS(=O)(=O)CC(F)(F)F)ccc1-c1n[nH]c(Nc2cnccn2)c1C(N)=O)c1ccc(F)cc1` , tested on Receptor-interacting serine/threonine-protein kinase 1 (Homo sapiens, UniProt Q13546).
OUT: < 4.52

IN: Please provide the recorded pKd for `C[C@H](Oc1cc(-c2nn(C)c3c(C4CCN(C)CC4)cnc(N)c23)ccc1NS(=O)(=O)C(F)F)c1ccc(F)cc1` , tested on Receptor-interacting serine/threonine-protein kinase 1 (Homo sapiens, UniProt Q13546).
OUT: < 5.00

IN: Please provide the recorded pKd for C[C@H](Oc1cc(-c2nn(C)c3c(-c4cnn(C5CCN(C)C5)c4)cnc(N)c23)ccc1NS(=O)(=O)C(F)F)c1ccc(F)cc1 (some centres unmarked) , tested on Receptor-interacting serine/threonine-protein kinase 1 (Homo sapiens, UniProt Q13546).
OUT: < 5.00

IN: Please provide the recorded pKd for `C[C@H](Oc1cc(-c2nn(C)c3c(-c4cccnc4)cnc(N)c23)ccc1NS(=O)(=O)C(F)F)c1ccc(F)cc1` , tested on Receptor-interacting serine/threonine-protein kinase 1 (Homo sapiens, UniProt Q13546).
OUT: < 5.00

IN: Please provide the recorded pKd for `NC(=O)c1c(-c2ccc(NS(=O)(=O)C(F)(F)F)cc2)n[nH]c1Nc1cccc(C(F)(F)F)n1` , tested on Receptor-interacting serine/threonine-protein kinase 1 (Homo sapiens, UniProt Q13546).
OUT: < 4.52

IN: Please provide the recorded pKd for `CCS(=O)(=O)Nc1ccc(-c2n[nH]c(Nc3ccccn3)c2C(N)=O)cc1OCc1ccc(F)cn1` , tested on Receptor-interacting serine/threonine-protein kinase 1 (Homo sapiens, UniProt Q13546).
OUT: < 4.52

IN: Please provide the recorded pKd for `Cc1cnc(Nc2[nH]nc(-c3ccc(NS(=O)(=O)CC(F)(F)F)c(O[C@@H](C)c4ccc(F)cc4)c3)c2C(N)=O)cn1` , tested on Receptor-interacting serine/threonine-protein kinase 1 (Homo sapiens, UniProt Q13546).
OUT: < 4.52

IN: Please provide the recorded pKd for `Nc1n[nH]c2ccnc(-c3ccc(NS(=O)(=O)CC(F)(F)F)c(OCc4ccc(F)cc4)c3)c12` , tested on Receptor-interacting serine/threonine-protein kinase 1 (Homo sapiens, UniProt Q13546).
OUT: < 5.00

IN: Please provide the recorded pKd for `CCS(=O)(=O)Nc1ccc(-c2n[nH]c(Nc3cnccn3)c2C(N)=O)cc1OCCc1ccccc1Cl` , tested on Receptor-interacting serine/threonine-protein kinase 1 (Homo sapiens, UniProt Q13546).
OUT: < 4.52
